Sourced from ChEMBL document CHEMBL3272299

System: Ehrlich
TEST SUMMARY: Antitumor activity against mouse EAC allografted in CF1 mouse assessed as tumor volume at 33 mg/kg/day measured on day 7
Type: functional
Outcome: t for Activity of at least 0.7 mL; f for anything lower.

Look over these answered cases.
MOLECULE | DISCRETE LABEL
C=CCOC(=O)C(Cc1ccccc1)NC(=O)OCc1ccccc1 (racemic) | f
O=C(N[C@H](Cc1ccccc1)C(=O)OC(Br)CBr)OCc1ccccc1 (stereo partly specified) | f
O=C(N[C@@H](Cc1ccccc1)C(=O)OC(Br)CBr)OCc1ccccc1 (stereo partly specified) | f
N#CCOC(=O)[C@H](Cc1ccccc1)NC(=O)/C=C/c1ccccc1 | t

Continue with the next molecule.
Prompt line: Check if Activity >= 0.7 mL (inclusive). Item: "C=COC(=O)[C@H](Cc1ccccc1)NC(=O)c1ccccc1"
Response line: t

====

TEST SUMMARY: Acute toxicity in CF1 mouse
Assay type: organism-based
CONDITION LABEL: in vivo
REPORTED METRIC: LD50 (µmol/kg)
One number for each entry, in µmol/kg.

Some compounds with known LD50 results, for comparison:
COMPOUND | LD50 (µmol/kg)
O=C(/C=C/c1ccccc1)N[C@@H](Cc1ccccc1)C(=O)O | 740
N#CCOC(=O)[C@H](Cc1ccccc1)NC(=O)c1ccccc1 | 360
O=C(N[C@@H](Cc1ccccc1)C(=O)N[C@@H](Cc1ccccc1)C(=O)OC(Br)CBr)OCc1ccccc1 (stereo not given in full) | 780

Provide each entry's LD50 from the list below.
1. N#CCOC(=O)C(Cc1ccccc1)NC(=O)OCc1ccccc1 (racemic)
2. Cc1ccc(S(=O)(=O)N[C@@H](Cc2ccccc2)C(=O)C(=O)CCl)cc1

Response line:
[760, 210]

State recorded LD50 for all listed compounds.
1. O=C(O)CCCc1ccc(N(CCCl)CCCl)cc1
2. O=C(N[C@H](Cc1ccccc1)C(=O)OC(Br)CBr)OCc1ccccc1 (stereo not given in full)
3. Cc1ccc(S(=O)(=O)N[C@@H](Cc2ccccc2)C(=O)OCC#N)cc1
4. O=C(N[C@@H](Cc1ccccc1)C(=O)OC(Cl)CCl)OCc1ccccc1 (stereo not given in full)

Response line:
1: 61; 2: 310; 3: 730; 4: 1260
